measured_on: TBK1 (Homo sapiens)
Sequence (Q9UHD2 whole entry, species assumed): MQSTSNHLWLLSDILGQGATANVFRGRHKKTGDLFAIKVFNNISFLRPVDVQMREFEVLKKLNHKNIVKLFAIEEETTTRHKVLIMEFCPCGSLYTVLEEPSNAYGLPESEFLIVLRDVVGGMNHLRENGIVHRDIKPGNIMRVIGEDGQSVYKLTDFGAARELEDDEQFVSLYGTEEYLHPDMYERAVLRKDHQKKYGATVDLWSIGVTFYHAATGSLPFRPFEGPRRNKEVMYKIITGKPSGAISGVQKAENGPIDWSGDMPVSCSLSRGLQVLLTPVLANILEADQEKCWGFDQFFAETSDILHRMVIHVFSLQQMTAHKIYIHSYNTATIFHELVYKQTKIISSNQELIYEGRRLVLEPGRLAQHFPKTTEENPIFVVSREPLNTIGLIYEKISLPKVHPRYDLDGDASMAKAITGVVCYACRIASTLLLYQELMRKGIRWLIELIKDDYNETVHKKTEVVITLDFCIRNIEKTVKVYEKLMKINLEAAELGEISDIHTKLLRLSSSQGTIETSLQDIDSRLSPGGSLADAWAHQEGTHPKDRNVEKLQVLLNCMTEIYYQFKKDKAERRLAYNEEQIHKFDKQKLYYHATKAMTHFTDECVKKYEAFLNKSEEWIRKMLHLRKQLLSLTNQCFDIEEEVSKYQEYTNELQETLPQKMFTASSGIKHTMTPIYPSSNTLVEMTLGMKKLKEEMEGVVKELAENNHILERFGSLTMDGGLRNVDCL
test_details: TBK Biochemical Assay
experimental_setup: read-out: TBK1 IC50
Structures can show the parent of a compound that is named as a salt.
readout_kind: IC50

- COc1cc(C(=O)N(C)C)cnc1-c1cc2nccc(-c3ccc(N4CCC(F)C4)c(C#N)n3)c2o1 (stereo not shown): < 100 nM
- N#Cc1cc(-c2ccnc3cc(-c4ccc(C(=O)O)cc4)oc23)ccc1N1CC[C@H](F)C1: < 100 nM
- COc1cc(C(=O)N(C)C(C)(C)C)ccc1-c1cc2nccc(-c3ccc(OC4CCOCC4)c(C#N)c3)c2o1: < 100 nM
- CN(C)C(=O)c1ccc(-c2cc3nccc(-c4ccc(O[C@@H]5CCCOC5)c(C#N)c4)c3o2)cc1: < 100 nM
- COc1cc(C(=O)N(C)C2CCN(C)C2)ccc1-c1cc2nccc(-c3ccc(OC4CCOCC4)c(C#N)c3)c2o1 (stereo not shown): < 100 nM
- COc1cc(-c2cc3nccc(-c4ccc(OC5CCOCC5)c(C#N)c4)c3o2)ccc1C(=O)N(C)C: < 100 nM
- COc1cc(C(=O)N2CCC2)ccc1-c1cc2nccc(-c3ccc(OC4CCOCC4)c(C#N)c3)c2o1: < 100 nM
- COc1cc(C(=O)N(C)C)cnc1-c1cc2ncc(F)c(-c3ccc(OC4CCOCC4)c(C#N)c3)c2o1: < 100 nM
- COc1cc(C(=O)N(C)C)ncc1-c1cc2nccc(-c3ccc(OC4CCN(C)CC4(F)F)c(C#N)c3)c2o1 (stereo not shown): < 100 nM
- COc1cc(C(=O)N2CCC3(CCNC3=O)CC2)ccc1-c1cc2nccc(-c3ccc(NC4CCOCC4)c(C#N)c3)c2o1: < 100 nM
- COc1cc(C(=O)NCCN2CCC2)ccc1-c1cc2nccc(-c3ccc(OC4CCOCC4)c(C#N)c3)c2o1: < 100 nM
- COc1cc(C(=O)N(C)C)ncc1-c1cc2nccc(-c3ccc(NC4CCOCC4)c(C#N)c3)c2o1: < 100 nM
- COc1cc(C(=O)N(C)C)ccc1-c1cc2nccc(-c3ccc(N4CC[C@@H](F)C4)c(C#N)c3)c2o1: < 100 nM
- N#Cc1cc(-c2ccnc3cc(-c4ccc(C(=O)NC5CNCCC5F)cc4)oc23)ccc1OC1CCOCC1 (racemic): < 100 nM
- COc1cc(C(=O)N(C)CCO)cnc1-c1cc2ncc(C3CC3)c(-c3ccc(OC4CCOCC4)c(C#N)n3)c2o1 [Compound 363, hydrochloride]: > 5000 nM
- COc1cc(C(=O)N2CCCC2)cnc1-c1cc2nccc(-c3ccc(OC4CCOCC4)c(C#N)c3)c2o1 [Compound 416, hydrochloride]: < 100 nM
- N#Cc1cc(-c2ccnc3cc(-c4ccc(C(=O)N[C@@H]5CCNC[C@@H]5F)cc4F)oc23)ccc1NC1CCOCC1 (stereo in doubt) [Compound 252, hydrochloride]: 100 to 1000 nM
- COc1cc(C(=O)N2CC3COCC3C2)ccc1-c1cc2nccc(-c3ccc(OC4CCOCC4)c(C#N)c3)c2o1 (stereo not shown): < 100 nM
- CN(C)C(=O)c1ccc(-c2cc3nccc(-c4ccc(NC5CCOCC5)c(C#N)c4)c3o2)nc1: 100 to 1000 nM
- COc1cc(C(=O)N2CCC(O)C2)ccc1-c1cc2nccc(-c3ccc(NC4CCOCC4)c(C#N)c3)c2o1 (stereo not shown): < 100 nM
- COc1cc(C(=O)N2CC3CC(C2)O3)cnc1-c1cc2nccc(-c3ccc(OC4CCOCC4)c(C#N)c3)c2o1: < 100 nM
- COc1cc(C(=O)N(C)C)ccc1-c1cc2nccc(-c3ccc(OCC4CNC4)c(C#N)c3)c2o1: 100 to 1000 nM
- COc1cc(C(=O)N(C)CCO)cnc1-c1cc2ncc(OC)c(-c3ccc(OC4CCOCC4)c(C#N)n3)c2o1: 100 to 1000 nM
- COc1cc(C(=O)NC2CCN(C)CC2O)ccc1-c1cc2nccc(-c3ccc(OC4CCOCC4)c(C#N)c3)c2o1 (stereo not shown): < 100 nM
- COc1cc(C(=O)N2CCCCC2)cnc1-c1cc2nccc(-c3ccc(N4CC[C@@H](F)C4)c(C#N)c3)c2o1: < 100 nM
